procedure.summary: Human pregnane X receptor (PXR) small molecule agonists, qHTS cell viability counter screen (AID 1346977); note: nearly all actives have a fitted effect of over 50% in size
cond: PXR-Luc HepG2 viability, CellTiter-Fluor, 24 h; series mostly up to 92.4 µM
Inconclusive results are not listed. Activity calls are given as the source filed them. Calls come from the whole dose curve; as a rule, active = well fitted cell-killing curve with a large enough effect in the repeat runs; inconclusive = weak or mixed curves, or effect the other way; inactive = flat fitted curve, though single readings scatter.
// classify into active, inactive

[
  {
    "molecule": "CCOCCOCCO",
    "class.name": "inactive"
  },
  {
    "molecule": "C[C@]12CC[C@H]3[C@@H](CCC4=CC(=O)CC[C@@]43C)[C@@H]1CC[C@@H]2C(=O)CO",
    "class.name": "inactive"
  },
  {
    "molecule": "C=CC(C)(CCC=C(C)C)OC(C)=O (stereo unspecified)",
    "class.name": "inactive"
  },
  {
    "molecule": "C=C(C)C(=O)OCCOC(=O)C(=C)C",
    "class.name": "inactive"
  },
  {
    "molecule": "COC(=O)CCC(=O)OC",
    "class.name": "inactive"
  },
  {
    "molecule": "O=[N+]([O-])c1ccc2c(c1)Cc1ccccc1-2",
    "class.name": "inactive"
  }
]

*Q* Look up the recorded call for CCC(C)CO (stereo unspecified) in this test.
*A* inactive

*Q* // param item: "O=P(O)(O)O" ; yields the recorded call
*A* inactive

*Q* Called result for "COC(=O)c1ccccc1"
*A* inactive

*Q* What did this assay record as the result for "CCCCOCCOCCO" ?
*A* inactive

*Q* Can you look up the reported call for "Cc1ncc[nH]1" for me?
*A* inactive

*Q* I would be grateful if you could indicate the recorded call for "C[C@]12CCC(=O)C=C1CC[C@@H]1[C@@H]2C(=O)C[C@@]2(C)[C@H]1CC[C@]2(O)C(=O)CO" .
*A* inactive

====

test.system: Aryl hydrocarbon receptor (Homo sapiens)
procedure.summary: qHTS assay to identify small molecule that activate the aryl hydrocarbon receptor (AhR) signaling pathway (AID 743085); note: nearly all actives have a fitted effect of over 15% in size;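 for activation: HG2L7.5c1 human HepG2 liver cells with stably integrated DRE-driven firefly reporter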
cond: HepG2 AhR-luc (HG2L7.5c1), luciferase, 24 h; series mostly up to 70.3 µM
Records with an inconclusive call do not appear. Activity calls are given as the source filed them. Calls come from the whole dose curve; as a rule, active = well fitted activation curve with a large enough effect in the repeat runs; inconclusive = weak or mixed curves; inactive = no such curve, though single readings can be large or run the other way.
measurement.type: outcome

Before answering, review these 8 worked examples.
[
  {
    "compound": "COC(=O)C1=C(C)NC(C)=C(C(=O)OCCN(C)Cc2ccccc2)C1c1cccc([N+](=O)[O-])c1 (centres undefined)",
    "measurement.type": "outcome",
    "value.observed": "inactive"
  },
  {
    "compound": "Nc1ccc(S(=O)(=O)Nc2cnc3ccccc3n2)cc1",
    "measurement.type": "outcome",
    "value.observed": "inactive"
  },
  {
    "compound": "CC(C)OB(OC(C)C)OC(C)C",
    "measurement.type": "outcome",
    "value.observed": "inactive"
  },
  {
    "compound": "CC(=O)O[C@]1(C(C)=O)CC[C@H]2[C@@H]3C=C(Cl)C4=CC(=O)[C@@H]5C[C@@H]5[C@]4(C)[C@H]3CC[C@@]21C",
    "measurement.type": "outcome",
    "value.observed": "inactive"
  },
  {
    "compound": "CC(C)=CCC/C(C)=C\\CO",
    "measurement.type": "outcome",
    "value.observed": "inactive"
  },
  {
    "compound": "CCCCC(CC)COP(=O)(OCC(CC)CCCC)OCC(CC)CCCC (centres undefined)",
    "measurement.type": "outcome",
    "value.observed": "inactive"
  },
  {
    "compound": "O=C(/C=C/c1ccccc1)OCc1ccccc1",
    "measurement.type": "outcome",
    "value.observed": "inactive"
  },
  {
    "compound": "CC(C)CC(C)(O)C#CC(C)(O)CC(C)C (centres undefined)",
    "measurement.type": "outcome",
    "value.observed": "inactive"
  }
]

Kindly consider the entry below.
*Q* Return reported outcome; argument: CCC(C)(O)CCCC(C)C (centres undefined)
*A* inactive

====

test.system: Retinoic acid receptor RXR-alpha (Homo sapiens)
procedure.summary: qHTS assay to identify small molecule agonists of the RXR signaling pathway (AID 1159527); note: nearly all actives have a fitted effect of over 35% in size
cond: HEK293T RXRa-UAS-bla, beta-lactamase ratio, 16 h; series mostly up to 76.8 µM
Text: U.S. Tox21 Program National Center for Advancing Translational Sciences [NCATS] NIH Chemical Genomics Center [NCGC] U.S. Environmental Protection Agency [EPA] National Institutes of Environmental Health Sciences [NIEHS] National Toxicology Program [NTP] U.S. Food and Drug Administration [FDA] Tox21 Assay Overview: The Retinoid X receptor (RXR), a nuclear hormone receptor expressed in liver, spleen, placenta, epidermis, central nervous system. […]
Records with an inconclusive call do not appear. The source made the active and inactive calls. Calls come from the whole dose curve.
API: response.call in active, inactive

[
  {
    "compound": "NNc1ccc(C(=O)O)cc1",
    "test.system": "Retinoic acid receptor RXR-alpha (Homo sapiens)",
    "class.name": "active"
  },
  {
    "compound": "CCCCNS(=O)(=O)c1ccccc1",
    "test.system": "Retinoic acid receptor RXR-alpha (Homo sapiens)",
    "class.name": "inactive"
  },
  {
    "compound": "Cc1ccc2c(n1)Oc1ccc(C(C)C(=O)OCC(=O)N(C)C)cc1C2 (centres undefined)",
    "test.system": "Retinoic acid receptor RXR-alpha (Homo sapiens)",
    "class.name": "inactive"
  },
  {
    "compound": "Cc1cccc([N+](=O)[O-])c1C",
    "test.system": "Retinoic acid receptor RXR-alpha (Homo sapiens)",
    "class.name": "inactive"
  }
]

Could you now look at the following compound, please?
*Q* Identify the outcome logged in this assay for the compound shown: "CN(C)CCN(Cc1cccs1)c1ccccn1"
*A* inactive

====

procedure.summary: qHTS assay to identify small molecule antagonists of the retinoid-related orphan receptor gamma (ROR-gamma) signaling pathway - cell viability counter screen (AID 1159520); note: nearly all actives have a fitted effect of over 50% in size
cond: Tet-on RORgamma CHO cells viability, ATP luminescence, 16 h; series mostly up to 92.4 µM
Results filed as inconclusive are left out. Active and inactive are the calls of the source. Calls follow the shape of the dose curve; as a rule, active = well fitted cell-killing curve with a large enough effect in the repeat runs; inconclusive = weak or mixed curves, or effect the other way; inactive = no such curve, though single readings can be large or run the other way.
Give your call using only these classes: active, inactive

// known answers, use as guide
[
  {
    "compound": "CC(C)(C)NC(=O)[C@H]1CC[C@H]2[C@@H]3CC[C@H]4NC(=O)C=C[C@]4(C)[C@H]3CC[C@]12C",
    "class.name": "inactive"
  },
  {
    "compound": "C#C[C@]1(O)CC[C@H]2[C@@H]3CCC4=Cc5oncc5C[C@]4(C)[C@H]3CC[C@@]21C",
    "class.name": "inactive"
  },
  {
    "compound": "C=C(C)C1CC=C(C)CC1 (stereo not drawn)",
    "class.name": "inactive"
  },
  {
    "compound": "O=CCc1ccccc1",
    "class.name": "inactive"
  }
]

*Q* Answer briefly: the call reported for "O=C(/C=C/c1ccccc1)OCc1ccccc1" in this assay.
*A* inactive

*Q* For C=CC(C)(CCC=C(C)C)OC(C)=O (stereo not drawn) , what call appears in the results of this test?
*A* inactive

*Q* So what was the verdict on "Cc1ccc(C(=O)c2cc(O)c(O)c([N+](=O)[O-])c2)cc1" in this test?
*A* inactive

*Q* What was the test verdict on COC(C)COC(C)COC(C)CO (stereo not drawn) ?
*A* inactive

*Q* Please share the test call associated with "COc1ccc(C(=O)CC(=O)c2ccc(C(C)(C)C)cc2)cc1" .
*A* inactive

*Q* Answer briefly: the call reported for "C/C=C/C(=O)O" in this assay.
*A* inactive

*Q* Call for entry CC1=CCC(C(C)(C)O)CC1 (stereo not drawn) :
*A* inactive

*Q* Write down the call the test reported for this compound. Item: "O=C(/C=C/C=C/c1ccc2c(c1)OCO2)N1CCCCC1"
*A* inactive

====

test.system: Aryl hydrocarbon receptor (Homo sapiens) (UniProt P35869)
Sequence (P35869 whole entry, looked up): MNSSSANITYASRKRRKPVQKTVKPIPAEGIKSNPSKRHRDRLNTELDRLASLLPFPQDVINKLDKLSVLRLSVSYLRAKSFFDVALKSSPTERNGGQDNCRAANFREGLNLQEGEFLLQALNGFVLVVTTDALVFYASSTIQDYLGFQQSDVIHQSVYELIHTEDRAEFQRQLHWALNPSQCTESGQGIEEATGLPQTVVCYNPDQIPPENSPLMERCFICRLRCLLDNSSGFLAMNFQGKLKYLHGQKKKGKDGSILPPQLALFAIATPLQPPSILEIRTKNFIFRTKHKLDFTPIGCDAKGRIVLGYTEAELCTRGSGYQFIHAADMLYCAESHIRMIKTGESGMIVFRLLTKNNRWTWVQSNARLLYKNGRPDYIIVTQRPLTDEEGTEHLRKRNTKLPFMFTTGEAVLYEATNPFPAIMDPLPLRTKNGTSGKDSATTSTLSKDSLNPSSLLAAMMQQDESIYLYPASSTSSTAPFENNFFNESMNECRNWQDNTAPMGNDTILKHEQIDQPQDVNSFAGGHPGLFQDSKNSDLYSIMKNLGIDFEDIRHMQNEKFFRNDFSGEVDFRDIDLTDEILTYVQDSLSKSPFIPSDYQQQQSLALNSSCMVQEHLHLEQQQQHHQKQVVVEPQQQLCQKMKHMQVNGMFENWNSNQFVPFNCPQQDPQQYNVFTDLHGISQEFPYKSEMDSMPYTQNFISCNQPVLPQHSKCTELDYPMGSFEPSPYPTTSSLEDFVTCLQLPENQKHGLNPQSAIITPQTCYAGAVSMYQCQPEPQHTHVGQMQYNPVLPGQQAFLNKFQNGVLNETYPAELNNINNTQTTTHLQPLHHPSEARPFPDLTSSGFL
procedure.summary: qHTS assay to identify small molecule that activate the aryl hydrocarbon receptor (AhR) signaling pathway (AID 743085); note: nearly all actives have a fitted effect of over 15% in size;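 for activation: HG2L7.5c1 human HepG2 liver cells with stably integrated DRE-driven firefly reporter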
cond: HepG2 AhR-luc (HG2L7.5c1), luciferase, 24 h; series mostly up to 70.3 µM
Records with an inconclusive call do not appear. The source made the active and inactive calls. Calls follow the shape of the dose curve; as a rule, active = well fitted activation curve with a large enough effect in the repeat runs; inconclusive = weak or mixed curves; inactive = no such curve, though single readings can be large or run the other way.
Pick from yes (1) for active, no (0) for inactive when you respond.

These recorded examples may help you get a feel for the data.
[
  {
    "molecule": "CC(=O)c1ccccn1",
    "class.name": "no (0)"
  },
  {
    "molecule": "O=C(c1ccc(OCCN2CCCCC2)cc1)c1c(-c2ccc(O)cc2)sc2cc(O)ccc12",
    "class.name": "no (0)"
  },
  {
    "molecule": "Cc1ccc2c(n1)Oc1ccc(C(C)C(=O)OCC(=O)N(C)C)cc1C2 (stereo unspecified)",
    "class.name": "yes (1)"
  },
  {
    "molecule": "NC=O",
    "class.name": "no (0)"
  },
  {
    "molecule": "C=C(C)C(=O)OCCOC(=O)C(=C)C",
    "class.name": "no (0)"
  },
  {
    "molecule": "c1cc(-c2ccncc2)ccn1",
    "class.name": "no (0)"
  },
  {
    "molecule": "C=CC(C)(CCC=C(C)C)OC(C)=O (stereo unspecified)",
    "class.name": "no (0)"
  },
  {
    "molecule": "O=C(c1ccccc1)c1ccc(O)cc1O",
    "class.name": "no (0)"
  },
  {
    "molecule": "O=C(OCc1ccccc1)c1ccccc1O",
    "class.name": "no (0)"
  },
  {
    "molecule": "C[C@]12CCC(=O)C=C1CC[C@@H]1[C@@H]2C(=O)C[C@@]2(C)[C@H]1CC[C@]2(O)C(=O)CO",
    "class.name": "no (0)"
  }
]

Below: the item to evaluate.
*Q* Recorded call for "Cc1[nH]c(=O)c(C#N)cc1-c1ccncc1" ?
*A* no (0)
